TARGET_OF_ASSAY: human k-opioid receptor (kOR) (Homo sapiens)
Construct: expressed in transfected cells; host or cells: RBL cells (membrane homogenates)
Sequence (P41145 whole entry): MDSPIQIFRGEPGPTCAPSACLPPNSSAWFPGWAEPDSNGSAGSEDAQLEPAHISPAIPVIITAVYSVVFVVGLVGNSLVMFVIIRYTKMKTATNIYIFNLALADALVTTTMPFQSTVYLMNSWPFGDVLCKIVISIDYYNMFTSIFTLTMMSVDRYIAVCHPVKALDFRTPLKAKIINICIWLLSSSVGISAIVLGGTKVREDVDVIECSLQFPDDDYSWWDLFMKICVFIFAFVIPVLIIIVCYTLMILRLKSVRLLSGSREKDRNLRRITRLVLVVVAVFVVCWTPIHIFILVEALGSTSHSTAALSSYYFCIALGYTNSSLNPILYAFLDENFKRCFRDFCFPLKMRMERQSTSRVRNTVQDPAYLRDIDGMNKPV
PROTOCOL_DETAILS: Human k-opioid (KOP) receptor (agonist radioligand [3H]U-69593) binding assay, transfected RBL cell membranes
SETUP_CONDITIONS: read-out: KOR % Inh. @ 1 uM
Give Y when the value for inhibition at 1 µM is at least 4%. Give N when it is less.

Here's what some known entries look like.
>>> class_assignment("[2H]C1([2H])CC[C@@]([2H])(Cn2ccc(-c3ccc(F)cc3)n2)N1C(=O)c1c(-c2ncccn2)nn2ccccc12")
"Y"
>>> class_assignment("O=C(c1nn2cccnc2c1-c1ccccc1)N1CCC[C@H]1Cn1ccc(-c2ccccn2)n1")
"Y"
>>> class_assignment("O=C(c1c(-c2ncccn2)nn2ccccc12)N1CCC[C@H]1Cn1ccc(-c2ccccc2)n1")
"Y"
>>> class_assignment("O=C(c1nn2c(c1-c1ccccc1)COCC2)N1[C@@H]2CC[C@@H](C2)[C@H]1COc1ccc(C(F)(F)F)cn1")
"N"

// inclusive: inhibition at 1 µM at least 4%? input: `O=C(c1nc2ccccn2c1-c1ccccn1)N1CCC[C@H]1Cn1cc(-c2ccc(F)cn2)cn1`
N

// inclusive: inhibition at 1 µM at least 4%? input: `O=C(c1c(-c2ccccc2)nn2cccnc12)N1CCC[C@H]1Cn1ccc(-c2ccccn2)n1`
Y

====

The entries below are paired with their reported inhibition at 1 µM.
TARGET_OF_ASSAY: human orexin-2 receptor (OX2R) (Homo sapiens, UniProt O43614)
Construct: expressed in transfected cells; host or cells: CHO cells (G418 selection)
Sequence (O43614 whole entry): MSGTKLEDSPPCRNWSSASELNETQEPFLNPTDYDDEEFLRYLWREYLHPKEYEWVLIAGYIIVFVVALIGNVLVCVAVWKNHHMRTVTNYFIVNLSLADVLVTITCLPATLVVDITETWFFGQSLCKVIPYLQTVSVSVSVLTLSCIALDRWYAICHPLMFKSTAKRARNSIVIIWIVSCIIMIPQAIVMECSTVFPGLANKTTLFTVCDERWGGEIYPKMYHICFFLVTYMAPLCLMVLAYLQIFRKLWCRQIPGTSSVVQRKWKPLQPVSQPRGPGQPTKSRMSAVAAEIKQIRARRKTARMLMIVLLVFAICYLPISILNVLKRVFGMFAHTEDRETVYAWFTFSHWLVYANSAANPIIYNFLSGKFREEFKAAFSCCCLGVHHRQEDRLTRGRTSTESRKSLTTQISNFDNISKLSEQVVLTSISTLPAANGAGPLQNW
PROTOCOL_DETAILS: In vitro orexin antagonism assay: intracellular calcium measurement (FLIPR), orexin-A 3 nM as agonist
Assay type: cell-based
SETUP_CONDITIONS: read-out: OX2R, % Inh. @ 1 uM
Report as a plain number; the unit % is understood.

// solved cases for inhibition at 1 µM follow
>>> measured_number("O=C(c1c(-c2ccccc2)nc2ccc(F)cn12)N1[C@H](Cn2ccc(-c3ccc(F)cn3)n2)C[C@@H]2C[C@@H]21")
32
>>> measured_number("O=C(c1nn2c(c1-c1ccccn1)OCCC2)N1CCC[C@H]1Cn1cc(-c2ccccn2)cn1")
39
>>> measured_number("C[C@@]1(COc2cnc(C(F)(F)F)cn2)CCCN1C(=O)c1nn2cccnc2c1-c1ccccc1")
20

We now examine a further compound.
Which value of inhibition at 1 µM has been reported for `O=C(c1c(-c2ccccc2)nn2ccccc12)N1CCC[C@H]1COc1ccc(Br)nc1` in the records?
10.4

====

TARGET_OF_ASSAY: Orexin type 1 (OX1R) receptor (Homo sapiens, UniProt O43613)
Construct: expressed in transfected cells; host or cells: CHO cells (G418 selection)
PROTOCOL_DETAILS: In vitro orexin antagonism assay: intracellular calcium measurement (FLIPR), orexin-A 3 nM as agonist
Format: cell-based
SETUP_CONDITIONS: read-out: OX1R, % Inh. @ 1 uM
QUANTITY_MEASURED: inhibition at 1 µM (%)
Report as a plain number; the unit % is understood.

>>> measured_number("O=C(c1c(-c2ccccc2F)nn2ccccc12)N1CCC[C@H]1Cn1cc(-c2ccccc2)cn1 [Example 69]")
100
>>> measured_number("O=C(c1c(-c2ccccn2)nn2ccccc12)N1CCC[C@H]1COc1ccc(C(F)(F)F)cn1 [Example 192]")
88
>>> measured_number("O=C(c1c(-c2ccccc2)nc2cc(C(F)(F)F)ccn12)N1CCC[C@H]1Cn1ccc(-c2ccc(F)cc2)n1 [Example 53]")
97.6
>>> measured_number("O=C(c1nn2c(c1-c1ccccn1)COCC2)N1CCC[C@H]1Cn1cc(-c2ccc(F)cn2)cn1 [Example 214]")
66
>>> measured_number("O=C(c1c(-c2ccccc2)nc2ccc(F)cn12)N1CCC[C@H]1Cn1cc(-c2ccc(F)cn2)cn1 [Example 84]")
32

We now examine a further molecule.
Which value of inhibition at 1 µM has been reported for O=C(c1nc2ccccn2c1-c1ccccc1)N1CCC[C@H]1Cn1cc(-c2ccccn2)cn1 [Example 118] in the records?
100

====

TARGET_OF_ASSAY: Orexin type 1 (OX1R) receptor (Homo sapiens)
PROTOCOL_DETAILS: In vitro orexin antagonism assay: intracellular calcium measurement (FLIPR), orexin-A 3 nM as agonist
SETUP_CONDITIONS: first value of IC50/Kb cell
QUANTITY_MEASURED: log10 of IC50 (log10 of the value in nM)
Please keep in mind that the values are log10 of IC50 expressed in nM.

Which value of log10 of IC50 has been reported for `O=C(c1nc2ccccn2c1-c1ccccc1)N1[C@@H]2CC[C@@H](C2)[C@H]1COc1ccc(C(F)(F)F)cn1` in the records?
2.28

Which value of log10 of IC50 has been reported for `O=C(c1nn2ccccc2c1-c1ccccn1)N1CCC[C@H]1Cc1nc(-c2ccc(F)cn2)no1` in the records?
1.08

Which value of log10 of IC50 has been reported for `O=C(c1c(-c2ccccc2F)nn2ccccc12)N1CC[C@H]1Cn1ccc(-c2ccc(F)cc2)n1` in the records?
2.64

Which value of log10 of IC50 has been reported for `O=C(c1nc2n(c1-c1ccccn1)CCOC2)N1CCC[C@H]1Cn1ccc(-c2ccc(F)cn2)n1` in the records?
2.20

Which value of log10 of IC50 has been reported for `O=C(c1c(-c2ccccc2)nn2c1COCC2)N1[C@@H]2CC[C@@H](C2)[C@H]1COc1ccc(C(F)(F)F)cn1` in the records?
2.36

Which value of log10 of IC50 has been reported for `C[C@@]1(Cn2ccc(-c3ccccn3)n2)CCCN1C(=O)c1nn2c(c1-c1ccccc1)COCC2` in the records?
2.72

Which value of log10 of IC50 has been reported for `C[C@@]1(COc2ccc(C(F)(F)F)cn2)CCCN1C(=O)c1c(-c2ncccn2)nn2ccccc12` in the records?
2.08

====

TARGET_OF_ASSAY: human orexin-2 receptor (OX2R) (Homo sapiens, UniProt O43614)
PROTOCOL_DETAILS: In vitro orexin antagonism assay: intracellular calcium measurement (FLIPR), orexin-A 3 nM as agonist
SETUP_CONDITIONS: first value of IC50/Kb cell
QUANTITY_MEASURED: IC50 (nM)
Report as a plain number; the unit nM is understood.

// solved cases for IC50 follow
>>> measured_number("O=C(c1nn2cccnc2c1-c1ccccn1)N1CCC[C@H]1Cn1cc(-c2ccc(F)cn2)cn1")
180
>>> measured_number("O=C(c1c(-c2ccccc2)nn2c1COCC2)N1CCC[C@H]1Cn1ccc(-c2ccc(F)cc2)n1")
773
>>> measured_number("O=C(c1c(-c2ccccc2)nn2ccccc12)N1CCC[C@H]1Cn1ccc(-c2ccc(F)cc2)n1")
11

Which value of IC50 has been reported for `O=C(c1nn2ccccc2c1-c1ccccc1)N1CCC[C@H]1Cc1nc(-c2ccc(F)cn2)no1` in the records?
150

====

TARGET_OF_ASSAY: Orexin type 1 (OX1R) receptor (Homo sapiens, UniProt O43613)
Construct: expressed in transfected cells; host or cells: CHO cells (G418 selection)
Sequence (O43613 1-425): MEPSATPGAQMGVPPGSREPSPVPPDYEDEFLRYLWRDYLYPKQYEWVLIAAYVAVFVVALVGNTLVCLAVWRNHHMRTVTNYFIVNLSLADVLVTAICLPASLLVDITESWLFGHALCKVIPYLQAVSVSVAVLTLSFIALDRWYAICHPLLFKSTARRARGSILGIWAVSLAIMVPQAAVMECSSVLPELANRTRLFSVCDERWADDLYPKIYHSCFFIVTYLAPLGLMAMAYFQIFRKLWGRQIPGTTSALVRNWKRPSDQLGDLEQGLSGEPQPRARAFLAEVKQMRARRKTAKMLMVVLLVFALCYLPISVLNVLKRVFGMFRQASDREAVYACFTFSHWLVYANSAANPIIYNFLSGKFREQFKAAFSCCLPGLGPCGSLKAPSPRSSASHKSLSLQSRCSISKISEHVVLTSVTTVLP
PROTOCOL_DETAILS: In vitro orexin antagonism assay: intracellular calcium measurement (FLIPR), orexin-A 3 nM as agonist
Format: cell-based
SETUP_CONDITIONS: @ 1 uM
The entries below are paired with their reported OX1R, % Inh. @ 1 uM.
Report as a plain number; the unit % is understood.

Kindly state the measured OX1R, % Inh. @ 1 uM obtained for `O=C(c1nn2c(c1-c1ccccn1)COCC2)N1CCC[C@H]1COc1ccc(C(F)(F)F)cn1` with Orexin type 1 (OX1R) receptor (Homo sapiens, UniProt O43613).
97

Kindly state the measured OX1R, % Inh. @ 1 uM obtained for `O=C(c1nc2ccccn2c1-c1ccccc1)N1CCC[C@H]1Cn1ccc(-c2ccc(F)cn2)n1` with Orexin type 1 (OX1R) receptor (Homo sapiens, UniProt O43613).
100

Kindly state the measured OX1R, % Inh. @ 1 uM obtained for `O=C(c1c(-c2ccccc2F)nn2ccccc12)N1CCC[C@H]1Cn1ccc(-c2ccc(F)cn2)n1` with Orexin type 1 (OX1R) receptor (Homo sapiens, UniProt O43613).
99

Kindly state the measured OX1R, % Inh. @ 1 uM obtained for `O=C(c1c(-c2ccc(F)cc2)nn2ccccc12)N1CCC[C@H]1Cn1ccc(-c2ccc(F)cc2)n1` with Orexin type 1 (OX1R) receptor (Homo sapiens, UniProt O43613).
100

// provenance: patent US20260070922A1
